test system: 997726-040-R-J2-PDC tumor spheroids, viability; assay: Anticancer human tumor 997726-040-R-J2-PDC patient-derived squamous cell lung carcinoma cell line growth inhibition [PI3K]; details: curve of first compound; second compound 0.01 µM; spheroids with HUVEC and MSC;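 also: spheroids exposed to compounds for seven days before readout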
endpoint_name: IC50 (µM)
Numbers only, in µM.

INSERT INTO measurements (compound, unit_label, assay_result) VALUES
  ('Cn1cnc2c(F)c(Nc3ccc(Br)cc3Cl)c(C(=O)NOCCO)cc21 + CC(Nc1ccc2c(c1)OCCn1cc(N3C(=O)OCC3C(F)F)nc1-2)C(N)=O', 'µM', 0.0824);

**Query** Record request: IC50 value, item CC1(C)CCC(CN2CCN(c3ccc(C(=O)NS(=O)(=O)c4ccc(NCC5CCOCC5)c([N+](=O)[O-])c4)c(Oc4cnc5[nH]ccc5c4)c3)CC2)=C(c2ccc(Cl)cc2)C1 + COc1c(OCCCN2CCOCC2)ccc2c3n(c(=NC(=O)c4cnc(N)nc4)nc12)CCN3
**Result** 4.2
